- Tested on: Staphylococcus aureus MW2 delta-mecA (mecA-)
- ASSAY_COMMENT: IC50 (growth, competition assay)
- CONDITION_SET: fluorescent label: DsRed; cefoxitin: subinhibitory
ASSAY_READOUT: IC50

{"columns": ["COMPOUND", "ASSAY_READOUT", "MEASURED_VALUE"],
 "data": [
  ["CO/N=C(\\C(=O)N[C@@H]1C(=O)N2C(C(=O)O)=C(COC(C)=O)CS[C@H]12)c1csc(N)n1 [Cefotaxime sodium]", "IC50", "< 9.85 µM"]
]}

Then this compound:
Test system Staphylococcus aureus MW2 delta-mecA (mecA-); read-out IC50; what value for CN(C)C[C@H](O)Cn1c2ccc(Br)cc2c2cc(Br)ccc21 (racemic) [Wiskostatin] ?
< 9.85 µM

* * *

Entries and their IC50
- Tested on: Staphylococcus aureus MW2 delta-mecA (mecA-)
- ASSAY_COMMENT: IC50 (growth, competition assay)
- CONDITION_SET: fluorescent label: DsRed; cefoxitin: subinhibitory
Your answer should be a plain number; it is taken to be in µM.

These solved cases illustrate the format of a correct answer.
{"columns": ["STRUCTURE_AS_SMILES", "U", "MEASURED_VALUE"],
 "data": [
  ["COc1ccc(Cl)cc1NC(=O)Nc1cc(C)nc2ccccc12", "µM", 10.6],
  ["COC(=O)Nc1ccc(-c2nc(N3CCOCC3)c3cnn(C4CCN(Cc5cccnc5)CC4)c3n2)cc1", "µM", 15.1],
  ["NC(=O)N/N=C/c1ccc([N+](=O)[O-])o1", "µM", 10.5]
]}

// lookup IC50 for C#CC[C@H](c1nc2cc(Cl)ccc2c(=O)n1Nc1ccccc1)N(CCCN)C(=O)c1cccc(Cl)c1F
23.9

// lookup IC50 for C/C=C(/C(=C/C)c1ccc(O)cc1)c1ccc(O)cc1
18.5

* * *

Entries and their pIC50
- System: Staphylococcus aureus MW2 delta-mecA (mecA-)
- ASSAY_COMMENT: IC50 (growth, competition assay)
- CONDITION_SET: fluorescent label: DsRed; cefoxitin: subinhibitory
pIC50: −log10 of the molar value.

These solved cases illustrate the format of a correct answer.
{"columns": ["MOLECULE", "pIC50"],
 "data": [
  ["CCN1CCN(C(=O)N[C@@H](C(=O)N[C@@H]2C(=O)N3[C@@H]2SC(C)(C)[C@@H]3C(=O)O)c2ccccc2)C(=O)C1=O", "> 5.01"],
  ["CC(=O)Oc1c2c(c(CC=C(C)C)c3c1C(=O)C1=C[C@@H]4CC5C(C)(C)OC(C/C=C(\\C)C(=O)O)(C4=O)[C@@]15O3)OC(C)(CCC=C(C)C)C=C2 (stereo partly drawn)", "> 5.01"],
  ["CC1(C)S[C@@H]2[C@H](NC(=O)[C@H](NC(=O)N3CCNC3=O)c3ccccc3)C(=O)N2[C@H]1C(=O)O [AZLIN]", "> 5.01"]
]}

// lookup pIC50 for CO[C@@]12[C@H](COC(N)=O)C3=C(C(=O)C(C)=C(N)C3=O)N1C[C@@H]1N[C@@H]12
> 5.01

// lookup pIC50 for O=C(Nc1ncc(SCCN2CCCC2)s1)[C@]1(c2ccc(S(=O)(=O)C3CC3)cc2)C[C@H]1C1CCCCC1
4.13

* * *

Entries and their pIC50
- Test system: Staphylococcus aureus MW2 delta-mecA (mecA-)
- ASSAY_COMMENT: IC50 (growth, competition assay)
- CONDITION_SET: fluorescent label: DsRed; cefoxitin: subinhibitory
pIC50: −log10 of the molar value.

{"columns": ["COMPOUND", "MEASURED_TARGET", "ASSAY_READOUT", "MEASURED_VALUE"],
 "data": [
  ["CS(=O)(=O)c1ccc([C@@H](O)[C@@H](CF)NC(=O)C(Cl)Cl)cc1", "Staphylococcus aureus MW2 delta-mecA (mecA-)", "pIC50", "> 5.01"],
  ["Cc1onc(-c2ccccc2)c1C(=O)N[C@@H]1C(=O)N2[C@@H]1SC(C)(C)[C@@H]2C(=O)O [Oxacillin sodium monohydrate]", "Staphylococcus aureus MW2 delta-mecA (mecA-)", "pIC50", "> 5.01"]
]}

// lookup pIC50 for Oc1c(Cl)cc(Cl)c2cccnc12
> 5.01

// lookup pIC50 for C#CCCCCCCCCCCCC(O)CC(O)CO.C=CCCCCCCCCCCCC(O)CC(O)CO (stereo unspecified)
> 5.01

// lookup pIC50 for CC(=O)OC[C@H]1O[C@@H]([S-])[C@H](OC(C)=O)[C@@H](OC(C)=O)[C@@H]1OC(C)=O.CCP(CC)CC.[Au+]
> 5.01

* * *

Entries and their IC50
- Test system: Staphylococcus aureus MW2 delta-mecA (mecA-)
- ASSAY_COMMENT: IC50 (growth, competition assay)
- CONDITION_SET: fluorescent label: DsRed; cefoxitin: subinhibitory
Where a name gives a salt, the structure may show the parent alone.

{"columns": ["COMPOUND", "IC50"],
 "data": [
  ["OC(c1cc(C(F)(F)F)nc2c(C(F)(F)F)cccc12)C1CCCCN1 (stereo not drawn) [LARIAM]", "< 9.85 µM"],
  ["O[C@@H](COc1cccc2ncccc12)CN1CCN([C@@H]2c3ccccc3[C@@H]3[C@H](c4ccccc42)C3(F)F)CC1", "14.3 µM"],
  ["CCOC(=O)c1ccc(N2NC(=O)C(=Cc3ccc([N+](=O)[O-])o3)C2=O)cc1 [PYR-41]", "24.1 µM"],
  ["O=C1C=C2C(=CCOC2O)O1 (stereo not drawn) [PATULIN]", "< 9.85 µM"],
  ["CCOc1nc2cccc(C(=O)OCc3oc(=O)oc3C)c2n1Cc1ccc(-c2ccccc2-c2noc(=O)[nH]2)cc1 [Azilsartan Medoxomil (TAK-491)]", "11.9 µM"],
  ["COc1ccc2c(c1)CCC1C2CCC2(C)C(NCCCCCCN3C(=O)C=CC3=O)CCC12 (stereo not drawn)", "46.3 µM"],
  ["O=C(O)Cc1cccc(OCCCN(Cc2cccc(C(F)(F)F)c2Cl)CC(c2ccccc2)c2ccccc2)c1 [GW3965 HCl]", "< 9.85 µM"],
  ["CC/C(=C(\\c1ccccc1)c1ccc(OCCN(C)C)cc1)c1ccccc1 [Tamoxifen citrate]", "< 9.85 µM"],
  ["CC[C@H]1OC(=O)[C@H](C)[C@@H](O[C@H]2C[C@@](C)(OC)[C@@H](O)[C@H](C)O2)[C@H](C)[C@@H](O[C@@H]2O[C@H](C)C[C@H](N(C)C)[C@H]2O)[C@](C)(O)C[C@@H](C)/C(=N\\OCOCCOC)[C@H](C)[C@@H](O)[C@]1(C)O [Roxithromycin (Roxl-150)]", "< 0.498 µM"],
  ["CCCCC[C@H](CC(=O)NO)C(=O)N[C@H](C(=O)N1CCC[C@H]1CO)C(C)C [Actinonin]", "< 9.85 µM"]
]}

// lookup IC50 for CN(CC(=O)N(Cc1ccc(C2CCCCC2)cc1)c1ccc(C(=O)O)cc1)S(=O)(=O)c1c(F)c(F)c(F)c(F)c1F [SH-4-54]
< 9.85 µM

// lookup IC50 for O=C1OCCN1/N=C/c1ccc([N+](=O)[O-])o1 [FUROXONE]
< 9.85 µM

// lookup IC50 for Oc1c(Br)cc(Br)c2cccnc12 [FENILOR]
< 9.85 µM

* * *

Entries and their IC50
- System: Staphylococcus aureus MW2 delta-mecA (mecA-)
- ASSAY_COMMENT: IC50 (growth, competition assay)
- CONDITION_SET: fluorescent label: DsRed; cefoxitin: subinhibitory

// lookup IC50 for C=C1/C(=C\C=C2/CCC[C@]3(C)[C@@H]([C@H](C)CCCC(C)C)CC[C@@H]23)C[C@@H](O)C[C@@H]1O
> 150 µM

// lookup IC50 for CC(C)(C)c1cc(/C=C(\C#N)C(N)=S)cc(C(C)(C)C)c1O
< 9.85 µM

// lookup IC50 for O=Nc1ccc2oc(=O)ccc2c1
31 µM

// lookup IC50 for CN1CCN(c2cc3c(cc2F)c(=O)c(C(=O)O)cn3-c2ccc(F)cc2)CC1
< 9.85 µM

* * *

- System: Staphylococcus aureus MW2 (mecA+)
- ASSAY_COMMENT: IC50 (growth, competition assay)
- CONDITION_SET: fluorescent label: DsRed; cefoxitin: subinhibitory
Structures can show the parent of a compound that is named as a salt.
Entries and their IC50
Your answer should be a plain number; it is taken to be in µM.

These solved cases illustrate the format of a correct answer.
{"columns": ["COMPOUND", "U", "IC50"],
 "data": [
  ["CC(C)(C)c1ccc(C(=O)CCCN2CCC(OC(c3ccccc3)c3ccccc3)CC2)cc1", "µM", 16.4],
  ["CCCCCCCCCCCCCCCC(=O)OC(CC(=O)O)C[N+](C)(C)C (racemic) [Palmitoyl-DL-Carnitine chloride]", "µM", 12.1],
  ["CSc1ccc2c(c1)C(N1CCN(C)CC1)Cc1ccccc1S2 (configuration not stated) [METITEPINE MESYLATE]", "µM", 56.9],
  ["C[C@@H](O[C@H]1OCCN(Cc2nn(P(=O)(O)O)c(=O)[nH]2)[C@H]1c1ccc(F)cc1)c1cc(C(F)(F)F)cc(C(F)(F)F)c1 [Fosaprepitant dimeglumine]", "µM", 53.4]
]}

// lookup IC50 for O=C1NC(c2cccc([N+](=O)[O-])c2)=CCN1c1ccccc1O
63.3

// lookup IC50 for CCCc1c(-c2ccc(O)cc2)nn(-c2ccc(O)cc2)c1-c1ccc(O)cc1 [1,3,5-tris(4-hydroxyphenyl)-4-propyl-1H-pyrazole]
12.5

// lookup IC50 for NC(=O)c1cnccn1
26.7

// lookup IC50 for O=C(Nc1ccc(C(=O)O)c(O)c1)c1ccccc1
29.8

// lookup IC50 for O=S(=O)(O)c1cc(I)c(O)c2ncccc12
84.9

// lookup IC50 for COC(=O)CC[C@@H](C)[C@H]1CC[C@H]2[C@@H]3CC[C@@H]4C[C@H](O)CC[C@]4(C)[C@H]3C[C@H](O)[C@]12C [METHYL DEOXYCHOLATE]
15.4

// lookup IC50 for O=C(O)c1nn(Cc2ccc(Cl)cc2Cl)c2ccccc12
27.7

// lookup IC50 for CC1(C)CCC2=C(O1)c1ccccc1C(=O)C2=O
12.9

// lookup IC50 for CCC[C@H](NC(=O)/C(C#N)=C/c1cccc(Br)n1)c1ccccc1
13.7

// lookup IC50 for NC(N)=NC(=O)c1nc(Cl)c(N2CCCCCC2)nc1N [5-(N,N-hexamethylene)amiloride]
90.9

// lookup IC50 for Nc1nc(/C(=C/CC(=O)O)C(=O)N[C@@H]2C(=O)N3C(C(=O)O)=CCS[C@H]23)cs1
18.2

// lookup IC50 for CCn1cc(C(=O)O)c(=O)c2cnc(N3CCNCC3)nc21
38

// lookup IC50 for C[C@@H](O)[C@H]1C(=O)N2C(C(=O)[O-])=C(SC3Cn4cnc[n+]4C3)[C@H](C)[C@H]12 (some centres not stated)
104

// lookup IC50 for CN(C)CCC=C1c2ccccc2CCc2ccccc21
111

// lookup IC50 for COc1cc(NS(C)(=O)=O)ccc1Nc1c2ccccc2nc2ccccc12 [Amsacrine hydrochloride]
106

// lookup IC50 for O=C1C=C2C(=CCOC2O)O1 (configuration not stated)
18.9

// lookup IC50 for CC(=O)Oc1ccc(Cl)c2cccnc12
17.2

// lookup IC50 for O=C(/C=C/c1ccccc1)c1ccc(O)cc1 [4'-HYDROXYCHALCONE]
77.3
